Ki data for Substance-P receptor (Homo sapiens, UniProt P25103) follow.
measurement type: Ki (nM)

In [3]: df
Out[3]:
                           molecular_string  result_number
0  Cc1ccccc1-c1nc(N2CCN(C)CC2)ncc1C(=O)N(C)Cc1cc(C(F)(F)F)cc(C(F)(F)F)c1            1.7
1  Cc1onc(-c2c(Cl)cccc2Cl)c1/C=N/Nc1c(Cl)cncc1Cl             15
2  CN(Cc1cc(C(F)(F)F)cc(C(F)(F)F)c1)Cc1ccccc1-c1ccccc1            724
3  Cc1ccccc1-c1ccc(N2CCN(C)CC2)nc1C(=O)N(C)Cc1cc(C(F)(F)F)cc(C(F)(F)F)c1            6.2
4  CN(Cc1cc(C(F)(F)F)cc(C(F)(F)F)c1)C(=O)c1ccccc1-c1ccccc1Cl             22
5  CN(C(=O)Cc1cc(C(F)(F)F)cc(C(F)(F)F)c1)c1ccccc1-c1ccccc1            562
6  FC(F)(F)c1cc(COCc2ccccc2-c2ccccc2)cc(C(F)(F)F)c1            224
7  Cc1ccccc1-c1cnc(N2CCN(C)CC2)cc1N(C)C(=O)C(C)(C)c1cc(C(F)(F)F)cc(C(F)(F)F)c1            1.7
